All values here come from PubChem BioAssay (EPA / NIEHS).

Read-out: Macrophage colony-stimulating factor (MCSF), CSF1 (gene 1435)
Experiment: BSK_CASM3C_MCSF: BioMAP Diversity Plus: CASM3C Assay for Macrophage colony-stimulating factor (MCSF) Biomarker Activity (AID 2283044);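 note: M-CSF protein amount quantified by ELISA after 24 h exposure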
Settings: primary human coronary artery smooth muscle cells; actives raise or lower the signal
The source made the active and inactive calls. Rule for the calls: active = hit-call score of the fitted dose curve at least 0.9, where 1 is the maximum; inactive = score below 0.9.
property-label: outcome

Please review the following examples before continuing.
CC(C)OC(=O)C(C)(C)Oc1ccc(C(=O)c2ccc(Cl)cc2)cc1
inactive
O=C1NC(=O)C(c2ccccc2)(c2ccccc2)N1
inactive
COC(=O)[C@H]1[C@H]2C[C@@H]3c4[nH]c5cc(OC)ccc5c4CCN3C[C@H]2C[C@@H](OC(=O)c2cc(OC)c(OC)c(OC)c2)[C@@H]1OC
inactive
CCCCCCCC(=O)OC
inactive
CC1=C(C)S(=O)(=O)CCS1(=O)=O
inactive

Could you now consider this next compound?
outcome reading for `O=C(NS(=O)(=O)/C=C/c1cccs1)c1ccc(F)cc1Br` : inactive
